B1: GAGE1 (parent)
chain: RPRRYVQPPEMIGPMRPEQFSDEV

# Variants of: B1
# measurement_notes: protein stability index of a GFP-peptide fusion (GPS, HEK-293T) (PSI 1-6); higher = more stable;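 note: lentivirally expressed fusions sorted by FACS into six bins by GFP to DsRed ratio, PSI derived from sequencing read proportions per bin multiplied by bin number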
# study_conditions: c terminus: a fixed tail appended
Outcome label depends on protein stability index relative to 4: at/above gives criterion met, below gives criterion not met.

>>> class_name("M15R")
"criterion met"
>>> class_name("I12C")
"criterion met"
>>> class_name("P14V")
"criterion met"
>>> class_name("Q19H")
"criterion not met"
>>> class_name("I12V")
"criterion met"
>>> class_name("G13Y")
"criterion not met"
>>> class_name("F20E")
"criterion met"

Then there is this variant:
Reported protein stability index at or above 4? R3T
criterion met
